Hey, just so you know, these numbers are from ChEMBL document CHEMBL1201862.

# System: NCI-H23
# ASSAY PROCEDURE: NCI tumour cell line growth inhibition, 48 h
Calls of active or inactive are those of the source. No stated cut-off is given here; in the data, active = GI50 up to about 1.1 µM and inactive = higher.
Labels: YES (active), NO (inactive)

{"columns": ["MOLECULE", "CLASS LABEL"],
 "data": [
  ["CC(=O)OC(OC(C)=O)n1cc(C=O)c2ccccc21", "NO"],
  ["COc1ccc2c(c1)c1ccc3c(c1n2C)C(=O)C=CC3=O", "NO"],
  ["Oc1ccc2ccccc2c1/N=N\\c1cccc2ccccc12", "NO"],
  ["COc1cc(/C=C/C(=O)OC[C@]23O[C@H]2[C@@H](OC2OC(C)C(O)C(O)C2O)C2C=CO[C@@H](OC4OC(CO)C(O)C(O)C4O)C23)ccc1O (stereo partly drawn)", "NO"],
  ["COC1=CC(=O)c2c(cc(COP(N)(=O)N(CCCl)CCCl)n2C)C1=O (stereo not drawn)", "YES"],
  ["COc1cc2c(cc1OC)C13CCN4C=C5CCOC6CC(=O)N2C1C6C5CC43 (stereo not drawn)", "NO"],
  ["CC1(C)CC[C@]2(C(=O)O)CCC3(C)C(=CCC4[C@@]5(C)CC[C@H](OC6OCC(O)C(O)C6OC6OC(CO)C(O)C(O)C6O)C(C)(C)C5CC[C@]43C)C2C1 (stereo partly drawn)", "NO"],
  ["COc1ccccc1NC(=O)C(CC(C(=O)Nc1ccccc1OC)/C(C)=N/NC(=O)c1ccccc1O)/C(C)=N/NC(=O)c1ccccc1O (stereo not drawn)", "NO"]
]}

---

Listing of recorded GI50 by entry.
# Test system: HOP-92
# ASSAY PROCEDURE: NCI tumour cell line growth inhibition, 48 h
Activity calls are given as the source filed them. Cut-off read from the data, not from the text of the source: active = GI50 up to about 1.1 µM and inactive = higher.

{"columns": ["COMPOUND", "GI50"],
 "data": [
  ["CCOC(=O)c1sc2nc(SC)nc3c2c1NCN3c1ccc2c(c1)OCCCO2", "79.3 µM (inactive)"],
  ["O=c1cc(N2CCCC2)[nH]c(=O)n1-c1ccc(F)cc1", "> 100 µM (inactive)"],
  ["Cc1cc(N(CCC#N)CCC#N)ccc1/C=C/C(=O)Nc1cccc(Cl)c1", "43.4 µM (inactive)"],
  ["CN1C/C(=C\\c2cccs2)C2=NN(C)C(c3cccs3)C2C1 (centres undefined)", "20.5 µM (inactive)"],
  ["COC(=O)C1=C(c2cc(OC)c(OC)c(OC)c2)O[C@H](c2ccc3c(c2)OCO3)[C@H]1COC(C)=O", "7.24 µM (inactive)"],
  ["C[C@@H]1[C@@H](c2ccccc2)O[B-](c2ccccc2)(c2ccccc2)[N+]1(C)C", "25.4 µM (inactive)"],
  ["COc1cc(/C=C2\\C(=O)N(c3cccc(Cl)c3)C(c3ccccc3)S2(=O)=O)cc(OC)c1OC (centres undefined)", "30.6 µM (inactive)"],
  ["Cc1nc(Nc2ccc(Cl)c(Cl)c2)sc1C(/C=C/c1ccc2c(c1)OCO2)=N/Nc1ccc([N+](=O)[O-])cc1[N+](=O)[O-]", "85.1 µM (inactive)"],
  ["COC(=O)c1cc2c(cc1C(=O)OC)[C@@]1(C)CCCC(C)(C)C1CC2 (some centres undefined)", "9.91 µM (inactive)"]
]}

---

Listing of recorded GI50 by entry.
# Test system: TK-10
# ASSAY PROCEDURE: NCI tumour cell line growth inhibition, 48 h
The source made the active and inactive calls. Cut-off read from the data, not from the text of the source: active = GI50 up to about 1.1 µM and inactive = higher.
ENDPOINT LABEL: GI50

{"columns": ["COMPOUND", "TARGET UNDER TEST", "RESULT"],
 "data": [
  ["COc1cc2c(cc1OC)C(=O)N(c1ccc(O)cc1)C2", "TK-10", "> 100 µM (inactive)"],
  ["CCCCCCCCCCCCC(SCCNC(=O)CCNC(=O)C(O)C(C)(C)COP(=O)(O)OP(=O)(O)OCC1OC(n2cnc3c(N)ncnc32)C(O)C1OP(=O)(O)O)C(=O)NCC(N)=O (stereo not given)", "TK-10", "> 100 µM (inactive)"],
  ["Cc1cc(Cc2c(F)c(F)c(Cc3cc(C)no3)c(F)c2F)on1", "TK-10", "54.2 µM (inactive)"],
  ["CN1C(=O)c2cccc3cc([N+](=O)[O-])cc(c23)C1=O", "TK-10", "> 10 µM (inactive)"],
  ["Nc1ncnc2c1ncn2-c1ccc([N+](=O)[O-])cn1", "TK-10", "> 100 µM (inactive)"]
]}
